// provenance: patent US12398154B2

experimental-system: KRas G12V (Homo sapiens, UniProt P01116, G12V)
Sequence (P01116 1-169 isoform P01116-2 G12V): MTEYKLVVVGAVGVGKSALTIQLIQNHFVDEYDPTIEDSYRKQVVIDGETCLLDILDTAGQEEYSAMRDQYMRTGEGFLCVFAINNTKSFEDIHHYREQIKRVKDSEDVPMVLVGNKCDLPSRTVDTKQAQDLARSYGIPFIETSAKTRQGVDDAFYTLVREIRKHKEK
protocol: biochemical
pIC50: −log10 of the molar value.

# compound, censoring-qualifier, pIC50
data = [
    ("CC1(O)CCCN(c2nc(OCC34CCCN3CCC4)nc3c(F)c(-c4cc(O)cc5ccccc45)ncc23)C1 (stereo not drawn)", "=", 8.10),
    ("CS(=O)(=O)C1COCCN(c2nc(OCC34CCCN3CCC4)nc3c(F)c(-c4cccc5cccc(F)c45)ncc23)C1 (stereo not drawn)", "=", 5.61),
    ("CCc1c(F)ccc2cc(O)cc(-c3ncc4c(N5CCC[C@@](C)(O)C5)nc(OC[C@@H]5C[C@@H](OC(=O)NC)CN5C)nc4c3F)c12", "=", 8.52),
    ("O=C1CC2(CCCN(c3nc(OCC45CCCN4CCC5)nc4c(F)c(-c5cccc6cccc(F)c56)ncc34)C2)CN1 (stereo not drawn)", "=", 5.47),
    ("C#Cc1c(F)ccc2cc(O)cc(-c3ncc4c(N5CCCn6nc(N)cc6C5)nc(OC[C@@]56CCCN5C[C@H](F)C6)nc4c3F)c12", "≥", 8.70),
    ("CCc1c(F)ccc2cc(O)cc(-c3ncc4c(N5CCCn6nc(C(=O)NC)cc6C5)nc(OC[C@@]56CCCN5C[C@H](F)C6)nc4c3F)c12", "≥", 8.70),
]

====

experimental-system: KRas G12V (Homo sapiens, UniProt P01116, G12V);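 note: KRas binding measured by TR-FRET displacement at room temperature, IC50 fitted from percent of control values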
protocol: biochemical
pIC50: −log10 of the molar value.
Reported pIC50 values are given for each entry in this list.

# molecule, censoring-qualifier, pIC50
rows = [
    ("OCC1COCCN(c2nc(OC[C@@]34CCCN3C[C@H](F)C4)nc3c(F)c(-c4cc(O)cc5ccc(F)c(Cl)c45)ncc23)C1 (stereo partly shown)", "≥", 8.70),
    ("O=C1NCC(CNc2nc(OCC34CCCN3CCC4)nc3c(F)c(-c4cccc5cccc(F)c45)ncc23)O1 (stereo not shown)", "=", 5.40),
    ("C#Cc1c(F)ccc2cc(O)cc(-c3ncc4c(N5CCCn6nc(C(=O)N(C)C)cc6C5)nc(OC[C@@]56CCCN5C[C@H](F)C6)nc4c3F)c12", "≥", 8.70),
    ("O=C1NC2(CCN(c3nc(OCC45CCCN4CCC5)nc4c(F)c(-c5cccc6cccc(F)c56)ncc34)CC2)CO1", "=", 5.07),
    ("CCc1c(F)ccc2cc(O)cc(-c3ncc4c(N5CCC[C@@](C)(O)C5)nc(OCC5(CN6CCCC6)CC5)nc4c3F)c12", "≥", 8.70),
    ("CCc1c(F)ccc2cc(O)cc(-c3ncc4c(N5CC6CC(O)CC5C6)nc(OC[C@@]56CCCN5C[C@H](F)C6)nc4c3F)c12 (stereo partly shown)", "≥", 8.70),
    ("CCc1c(F)ccc2cc(O)cc(-c3ncc4c(NCCc5c[nH]nn5)nc(OC[C@@]56CCCN5C[C@H](F)C6)nc4c3F)c12", "≥", 8.70),
    ("CCc1c(F)ccc2cc(O)cc(-c3ncc4c(N5CCC[C@@]6(CNC(=O)N6)C5)nc(OC[C@@]56CCCN5C[C@H](F)C6)nc4c3F)c12", "≥", 8.70),
    ("Nc1cc2n(n1)CCCN(c1nc(OCC34CCCN3CCC4)nc3c(F)c(-c4cccc5cccc(F)c45)ncc13)C2", "=", 5.81),
    ("Fc1c(-c2cccc3cccc(F)c23)ncc2c(N3CCCSCC3)nc(OCC34CCCN3CCC4)nc12", "=", 5.89),
    ("CCc1c(F)ccc2cc(O)cc(-c3ncc4c(N5CCN6C(C5)C(=O)NC6(C)C)nc(OC[C@@]56CCCN5C[C@H](F)C6)nc4c3F)c12 (stereo partly shown)", "=", 6.82),
    ("Cc1ccc(O)cc1-c1ncc2c(N3CCCC(C)(O)C3)nc(OCC34CCCN3CCC4)nc2c1F (stereo not shown)", "=", 5.71),
    ("CCc1c(F)ccc2cc(O)cc(-c3ncc4c(N5CCC[C@@](C)(O)C5)nc(OCC5(CN6CCN(C)CC6)CC5)nc4c3F)c12", "≥", 8.70),
]
